Provenance of the data: PubChem BioAssay AID256

Record form. Attribute: T/C. Fill in for each entry.
Tested on: CD2F1 mice, L1210 leukemia ip, survival T/C
Assay: NCI In Vivo Anticancer Drug Screen. Data for tumor model L1210 Leukemia (intraperitoneal) in CD2F1 (CDF1) mice
Settings: endpoint: mean survival time; dose: 100.0 mg/kg/injection; schedule: Q01DX009 (ip); vehicle: saline with Tween-80; higher = longer survival
Toxic doses and inconclusive results are not listed.

Input: Endpoint output: T/C of CCOC(=O)C(=Cc1ccc(O)c(OC)c1)C(=O)OCC . Value?
Output: 93 % of control

Input: Endpoint output: T/C of Cc1ccc(S(=O)(=O)OCCCCCOS(=O)(=O)c2ccc(C)cc2)cc1 . Value?
Output: 100 % of control

Input: Endpoint output: T/C of O=C1OC2C3CC4C2OC(=O)C4C13 (stereo not drawn) . Value?
Output: 102 % of control

Input: Endpoint output: T/C of O=[N+]([O-])c1cc2c(c([N+](=O)[O-])c1)OCOC2 . Value?
Output: 105 % of control

Input: Endpoint output: T/C of CCOC(=O)N1CCc2cc(OC)c(OC)cc2C1=C(c1ccccc1)c1ccccc1 . Value?
Output: 91 % of control

Input: Endpoint output: T/C of Cc1ccc(C2(c3ccccc3)OC(=O)c3ccccc32)cc1 (stereo not drawn) . Value?
Output: 86 % of control

Input: Endpoint output: T/C of N#CCC(C#N)N1CCOCC1 (stereo not drawn) . Value?
Output: 102 % of control

Input: Endpoint output: T/C of OC(CC1=NNC(=S)NC1)(C(F)(F)F)C(F)(F)F . Value?
Output: 89 % of control

Input: Endpoint output: T/C of CCCCCCSC(=O)NC(C)=O . Value?
Output: 92 % of control

Input: Endpoint output: T/C of CC/C(=C\C=C\N(C)C)C(=O)OC . Value?
Output: 100 % of control

Input: Endpoint output: T/C of O=C(O)c1ccccc1C(=O)NCCc1c[nH]c2ccccc12 . Value?
Output: 104 % of control

Input: Endpoint output: T/C of O=S(c1ccc(O)cc1)c1ccc(O)cc1 . Value?
Output: 94 % of control

Input: Endpoint output: T/C of COC(=O)c1ccccc1Nc1c2ccc(Cl)cc2nc2c1c(C)nn2C . Value?
Output: 96 % of control

Input: Endpoint output: T/C of N=C(N)SCCCSC(=N)N . Value?
Output: 90 % of control

Input: Endpoint output: T/C of O=C1NC(c2ccccc2)C([N+](=O)[O-])=C1O (stereo not drawn) . Value?
Output: 101 % of control

Input: Endpoint output: T/C of C/C(=N/O)c1ccc(F)cc1 . Value?
Output: 100 % of control

Input: Endpoint output: T/C of O=S(=O)(O)O.[Ga] . Value?
Output: 90 % of control

Input: Endpoint output: T/C of OC1(C2(O)CCCC2)CCCC1 . Value?
Output: 105 % of control

----------
Tested on: CD2F1 mice, L1210 leukemia ip, survival T/C
Test: NCI In Vivo Anticancer Drug Screen. Data for tumor model L1210 Leukemia (intraperitoneal) in CD2F1 (CDF1) mice
Settings: endpoint: mean survival time; dose: 200.0 mg/kg/injection; schedule: Q04DX003 (ip); vehicle: saline with Tween-80; higher = longer survival
Inconclusive results and toxic doses are left out. Residues, ends and D or L forms follow the SMILES beside them. *: point of attachment. Dnp = O=[N+]([O-])c1ccc(*)c([N+](=O)[O-])c1
VALUE_KIND: T/C

Input: Endpoint output: T/C of CSC(=S)N(C)/N=C/c1cccc(C)n1 . Value?
Output: 102 % of control

Input: Endpoint output: T/C of O/N=C(/CN1CCOCC1)c1ccccc1 . Value?
Output: 96 % of control

Input: Endpoint output: T/C of NCC(=O)NC(CSc1ccc([N+](=O)[O-])cc1[N+](=O)[O-])C(=O)NC(CCC(=O)O)C(=O)O (stereo not given) (H-Gly-Cys(Dnp)-Glu-OH; configuration not given here) . Value?
Output: 101 % of control

Input: Endpoint output: T/C of O=C(O)c1c(Cl)cc(Cl)c(-c2c(Cl)cc(Cl)c(C(=O)O)c2Cl)c1Cl . Value?
Output: 98 % of control

Input: Endpoint output: T/C of Cc1c(C(=O)c2no[n+]([O-])c2C(=O)c2c(C)c([N+](=O)[O-])c(C)c([N+](=O)[O-])c2C)c(C)c([N+](=O)[O-])c(C)c1[N+](=O)[O-] . Value?
Output: 88 % of control

Input: Endpoint output: T/C of Cc1cc2c(-c3ccccc3)c(-c3ccccc3)oc(=O)c2cc1C . Value?
Output: 90 % of control

Input: Endpoint output: T/C of Cc1ccc(S(=O)(=O)/C=C(\I)c2ccccc2)cc1 . Value?
Output: 96 % of control

Input: Endpoint output: T/C of CC(C)CC(Br)C(=O)NC(CC(C)C)C(=O)O (stereo not given) . Value?
Output: 105 % of control

Input: Endpoint output: T/C of CC(=O)OCC1OC2OC(C)(C)OC2C2OC(C)(C)OC12 (stereo not given) . Value?
Output: 101 % of control

Input: Endpoint output: T/C of Cc1nc(C)c(CCO)c(=O)[nH]1 . Value?
Output: 101 % of control

----------
Tested on: CD2F1 mice, L1210 leukemia ip, survival T/C
Experiment: NCI In Vivo Anticancer Drug Screen. Data for tumor model L1210 Leukemia (intraperitoneal) in CD2F1 (CDF1) mice
Conditions: endpoint: mean survival time; dose: 200.0 mg/kg/injection; schedule: Q04DX003 (ip); vehicle: saline with Tween-80; higher = longer survival
Toxic doses and inconclusive results are not listed.
Record form. Attribute: T/C. Fill in for each entry.

Input: Endpoint output: T/C of CN(C)c1nc(=[N+](C)C)ss1 . Value?
Output: 98 % of control

Input: Endpoint output: T/C of CC(=O)CC(=O)c1ccc(C(=O)CC(C)=O)cc1.[Fe] . Value?
Output: 89 % of control

Input: Endpoint output: T/C of O=C(NNC(=O)NC1OCC(O)C(O)C1O)Nc1ccccc1 (stereo unspecified) . Value?
Output: 98 % of control

Input: Endpoint output: T/C of Cc1oc(N)c(C(N)=O)c1C . Value?
Output: 100 % of control

Input: Endpoint output: T/C of Oc1ccc(-c2ccc(O)cc2)cc1 . Value?
Output: 109 % of control

Input: Endpoint output: T/C of Clc1ccc2nnnn2n1 . Value?
Output: 105 % of control

Input: Endpoint output: T/C of O=C(O)c1cc([N+](=O)[O-])ccc1Br . Value?
Output: 105 % of control

Input: Endpoint output: T/C of CCCCOC(=O)CCCC(=O)OCCCC . Value?
Output: 93 % of control

Input: Endpoint output: T/C of O=C(CCCCCNC(=O)OCc1ccccc1)Oc1ccc([N+](=O)[O-])cc1 . Value?
Output: 96 % of control

Input: Endpoint output: T/C of CCCCCCCCCCCCCC(=O)N(C)C . Value?
Output: 103 % of control

Input: Endpoint output: T/C of CCCCCC(C)(C)N=C=S . Value?
Output: 96 % of control

----------
Record form. Attribute: T/C. Fill in for each entry.
Test system: CD2F1 mice, L1210 leukemia ip, survival T/C
Assay: NCI In Vivo Anticancer Drug Screen. Data for tumor model L1210 Leukemia (intraperitoneal) in CD2F1 (CDF1) mice
Details: endpoint: mean survival time; dose: 400.0 mg/kg/injection; schedule: Q04DX003 (ip); vehicle: saline with Tween-80; higher = longer survival
Inconclusive results and toxic doses are left out.

Input: Query the reported T/C for CD2F1 mice, L1210 leukemia ip, survival T/C; item: O=C(c1ccccc1)c1c(-c2ccccc2)c(-c2ccccc2)c(-c2ccccc2)c(-c2ccccc2)c1-c1ccccc1
Output: 90 % of control

Input: Query the reported T/C for CD2F1 mice, L1210 leukemia ip, survival T/C; item: CC1(CC#N)CO1 (stereo not given)
Output: 96 % of control

Input: Query the reported T/C for CD2F1 mice, L1210 leukemia ip, survival T/C; item: Nc1nc2c(ncn2-c2cccc(C(F)(F)F)c2)c(=O)[nH]1
Output: 92 % of control

Input: Query the reported T/C for CD2F1 mice, L1210 leukemia ip, survival T/C; item: Cc1cc(C)c(N)c(Br)c1C
Output: 101 % of control

Input: Query the reported T/C for CD2F1 mice, L1210 leukemia ip, survival T/C; item: O=C1c2ccccc2C(=O)N1c1ccccc1-c1ccccc1
Output: 100 % of control

Input: Query the reported T/C for CD2F1 mice, L1210 leukemia ip, survival T/C; item: O=C(O)c1ccccc1C(=O)CC(O)(C(F)(F)F)C(F)(F)F
Output: 102 % of control

Input: Query the reported T/C for CD2F1 mice, L1210 leukemia ip, survival T/C; item: CCCCCCC(O)CCCCCCCCCCC(=O)O (stereo not given)
Output: 90 % of control

Input: Query the reported T/C for CD2F1 mice, L1210 leukemia ip, survival T/C; item: CC(=O)OC(C(=O)N(c1ccccc1)c1ccccc1)c1ccccc1 (stereo not given)
Output: 108 % of control

Input: Query the reported T/C for CD2F1 mice, L1210 leukemia ip, survival T/C; item: O=C(O)c1c(Cl)cc(Cl)c(-c2c(Cl)cc(Cl)c(C(=O)O)c2Cl)c1Cl
Output: 100 % of control

Input: Query the reported T/C for CD2F1 mice, L1210 leukemia ip, survival T/C; item: OCc1c(Cl)cccc1Cl
Output: 103 % of control

Input: Query the reported T/C for CD2F1 mice, L1210 leukemia ip, survival T/C; item: CCCCOS(=O)(=O)c1ccc(N)cc1
Output: 97 % of control

Input: Query the reported T/C for CD2F1 mice, L1210 leukemia ip, survival T/C; item: C=C(C)C(=O)OCCO (tested in a mixture with another compound)
Output: 100 % of control

Input: Query the reported T/C for CD2F1 mice, L1210 leukemia ip, survival T/C; item: COC(=O)c1ccccc1Nc1c2ccc(Cl)cc2nc2c1c(C)nn2C
Output: 106 % of control

Input: Query the reported T/C for CD2F1 mice, L1210 leukemia ip, survival T/C; item: C(=NC1CCCCC1)c1c[nH]c2ccccc12
Output: 98 % of control

Input: Query the reported T/C for CD2F1 mice, L1210 leukemia ip, survival T/C; item: COc1cc(C2=NCCO2)cc(OC)c1OC
Output: 93 % of control

Input: Query the reported T/C for CD2F1 mice, L1210 leukemia ip, survival T/C; item: Nc1ccccc1CO
Output: 95 % of control

Input: Query the reported T/C for CD2F1 mice, L1210 leukemia ip, survival T/C; item: O=S(CS(=O)c1ccccc1)c1ccccc1 (stereo not given)
Output: 105 % of control

Input: Query the reported T/C for CD2F1 mice, L1210 leukemia ip, survival T/C; item: CC(C)CC(Br)C(=O)NC(CC(C)C)C(=O)O (stereo not given)
Output: 94 % of control

Input: Query the reported T/C for CD2F1 mice, L1210 leukemia ip, survival T/C; item: Cc1ccc(S(=O)(=O)Oc2cccc(C)c2)cc1
Output: 94 % of control

Input: Query the reported T/C for CD2F1 mice, L1210 leukemia ip, survival T/C; item: Cc1nc(C)c(CCO)c(=O)[nH]1
Output: 103 % of control

Input: Query the reported T/C for CD2F1 mice, L1210 leukemia ip, survival T/C; item: O=C1NC(=S)S/C1=C\c1ccc(Cl)c(Cl)c1
Output: 97 % of control

Input: Query the reported T/C for CD2F1 mice, L1210 leukemia ip, survival T/C; item: CCCC(NC(=O)C(C)Br)C(=O)O (stereo not given)
Output: 100 % of control

Input: Query the reported T/C for CD2F1 mice, L1210 leukemia ip, survival T/C; item: BrC=C=C1CCCCC1
Output: 97 % of control

Input: Query the reported T/C for CD2F1 mice, L1210 leukemia ip, survival T/C; item: O/N=C(/CN1CCOCC1)c1ccccc1
Output: 102 % of control

Input: Query the reported T/C for CD2F1 mice, L1210 leukemia ip, survival T/C; item: Nc1ncnc(N)c1NC(=O)c1ccc(CCCCc2ccccc2)cc1
Output: 92 % of control

Input: Query the reported T/C for CD2F1 mice, L1210 leukemia ip, survival T/C; item: CCOC(Cc1cccc2ccccc12)(c1ccccc1)c1ccccc1
Output: 101 % of control

Input: Query the reported T/C for CD2F1 mice, L1210 leukemia ip, survival T/C; item: CC(=O)N(C(C)=O)c1ccccc1
Output: 103 % of control

Input: Query the reported T/C for CD2F1 mice, L1210 leukemia ip, survival T/C; item: CC(=O)NC(C)C(=O)NC1C(C)OC(=O)C2=C(O)CC(O)C(O)C21 (stereo not given)
Output: 97 % of control

Input: Query the reported T/C for CD2F1 mice, L1210 leukemia ip, survival T/C; item: OCCNc1ccc(I)cc1
Output: 103 % of control

Input: Query the reported T/C for CD2F1 mice, L1210 leukemia ip, survival T/C; item: O=C1CCN2CCc3c([nH]c4ccccc34)C2C1 (stereo not given)
Output: 109 % of control
